Origin of values: patent US20250361230A1

# STUDY_SYSTEM: LATS2 (Homo sapiens, UniProt Q9NRM7)
# Sequence (Q9NRM7 whole entry): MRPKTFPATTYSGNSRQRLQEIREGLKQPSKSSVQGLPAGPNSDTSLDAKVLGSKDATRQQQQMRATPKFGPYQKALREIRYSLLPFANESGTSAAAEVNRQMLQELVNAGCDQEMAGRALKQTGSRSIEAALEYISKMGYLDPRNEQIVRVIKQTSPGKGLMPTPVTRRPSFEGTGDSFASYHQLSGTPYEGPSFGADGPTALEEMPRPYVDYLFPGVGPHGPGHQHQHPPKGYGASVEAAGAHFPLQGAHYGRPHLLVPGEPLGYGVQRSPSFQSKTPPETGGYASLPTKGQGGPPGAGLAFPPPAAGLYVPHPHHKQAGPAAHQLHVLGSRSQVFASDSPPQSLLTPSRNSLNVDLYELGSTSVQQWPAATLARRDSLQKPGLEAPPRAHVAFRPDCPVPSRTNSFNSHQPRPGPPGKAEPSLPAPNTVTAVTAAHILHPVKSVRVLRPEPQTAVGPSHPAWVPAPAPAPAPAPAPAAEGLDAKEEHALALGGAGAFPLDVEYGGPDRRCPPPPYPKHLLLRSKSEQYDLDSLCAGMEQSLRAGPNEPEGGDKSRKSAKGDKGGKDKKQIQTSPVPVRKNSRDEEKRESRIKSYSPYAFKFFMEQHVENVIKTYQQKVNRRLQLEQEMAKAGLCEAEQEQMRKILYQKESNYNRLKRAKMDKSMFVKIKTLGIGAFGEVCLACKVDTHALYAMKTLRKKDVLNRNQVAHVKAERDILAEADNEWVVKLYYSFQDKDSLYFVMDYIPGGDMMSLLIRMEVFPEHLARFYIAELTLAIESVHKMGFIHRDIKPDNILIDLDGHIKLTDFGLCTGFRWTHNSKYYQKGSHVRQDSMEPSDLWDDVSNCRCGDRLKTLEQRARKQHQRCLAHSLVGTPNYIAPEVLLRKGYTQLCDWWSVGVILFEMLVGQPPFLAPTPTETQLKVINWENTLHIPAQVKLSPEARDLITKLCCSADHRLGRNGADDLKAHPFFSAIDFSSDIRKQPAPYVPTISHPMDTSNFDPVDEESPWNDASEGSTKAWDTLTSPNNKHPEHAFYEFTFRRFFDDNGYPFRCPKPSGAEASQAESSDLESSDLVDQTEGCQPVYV
# ASSAY_PROCEDURE: RBC HotSpot kinase assay (33P-ATP, P81 filter-binding), LATS2
# Format: biochemical
# MEASUREMENT_PARAMETERS: Table 28, biochemical kinase assay; read-out: LATS2 IC50
PROPERTY_MEASURED: IC50 (nM)
Please give a number only; it is taken to be in nM.

Report IC50 for Fc1c[nH]c2nccc(-c3ccc(C4CCNCC4)cc3)c12 tested on LATS2 (Homo sapiens, UniProt Q9NRM7). 14

Now the compound c1ccc(-c2cc(-c3ccnc4[nH]ccc34)ccc2C2CCNCC2)cc1 20.4

Now the compound c1cc(-c2ccc(C3CC4CCC(C3)N4)cc2)c2cc[nH]c2n1 (stereo not shown) 50

Continuing:
Report IC50 for O=C1NCc2ccc(-c3ccnc4[nH]ccc34)cc21 tested on LATS2 (Homo sapiens, UniProt Q9NRM7). 253

###

Reported values of pIC50 for individual entries
# STUDY_SYSTEM: LATS1 (Homo sapiens, UniProt O95835)
# Sequence (O95835 1-1130): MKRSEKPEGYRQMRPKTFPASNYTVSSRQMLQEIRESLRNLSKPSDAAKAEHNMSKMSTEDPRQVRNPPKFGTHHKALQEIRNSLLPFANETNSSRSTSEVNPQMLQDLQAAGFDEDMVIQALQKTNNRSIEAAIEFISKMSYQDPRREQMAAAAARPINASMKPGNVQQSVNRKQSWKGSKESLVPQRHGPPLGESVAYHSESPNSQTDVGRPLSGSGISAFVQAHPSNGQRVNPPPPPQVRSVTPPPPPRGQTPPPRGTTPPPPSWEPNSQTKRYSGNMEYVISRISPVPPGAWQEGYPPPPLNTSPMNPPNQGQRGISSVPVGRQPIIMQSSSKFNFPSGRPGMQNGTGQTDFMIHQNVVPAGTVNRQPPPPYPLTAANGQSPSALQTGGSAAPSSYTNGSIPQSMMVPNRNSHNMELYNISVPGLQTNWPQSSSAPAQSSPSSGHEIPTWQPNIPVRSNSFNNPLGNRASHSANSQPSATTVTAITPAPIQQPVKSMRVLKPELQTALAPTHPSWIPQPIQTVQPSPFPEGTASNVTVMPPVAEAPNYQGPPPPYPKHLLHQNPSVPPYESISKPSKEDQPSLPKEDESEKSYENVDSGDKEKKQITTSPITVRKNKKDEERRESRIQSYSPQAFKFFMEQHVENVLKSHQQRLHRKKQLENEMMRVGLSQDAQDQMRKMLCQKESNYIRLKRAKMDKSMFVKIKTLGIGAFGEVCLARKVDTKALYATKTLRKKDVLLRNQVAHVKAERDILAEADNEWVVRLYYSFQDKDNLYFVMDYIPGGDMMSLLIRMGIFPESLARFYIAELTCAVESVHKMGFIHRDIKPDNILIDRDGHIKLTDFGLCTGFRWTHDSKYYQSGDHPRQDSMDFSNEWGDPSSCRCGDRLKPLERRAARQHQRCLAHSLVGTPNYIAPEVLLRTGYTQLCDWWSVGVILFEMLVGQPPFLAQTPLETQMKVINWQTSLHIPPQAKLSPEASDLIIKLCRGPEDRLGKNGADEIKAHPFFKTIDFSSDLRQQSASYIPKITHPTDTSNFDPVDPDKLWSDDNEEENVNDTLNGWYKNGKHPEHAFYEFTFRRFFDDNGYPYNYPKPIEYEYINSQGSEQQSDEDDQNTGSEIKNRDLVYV
# ASSAY_PROCEDURE: RBC HotSpot kinase assay (33P-ATP, P81 filter-binding), LATS1
# Assay type: biochemical
# MEASUREMENT_PARAMETERS: Table 28, biochemical kinase assay; read-out: LATS1 IC50
Please treat pIC50 as minus the base-10 logarithm of the molar concentration.

Guide cases for pIC50, answers given:
Report pIC50 for Cc1cc(-c2ccnc3[nH]cc(F)c23)cc(F)c1[C@@]1(O)[C@H](C)CN(C(=O)[C@@H]2C[C@H](F)CN2)C[C@@H]1C tested on LATS1 (Homo sapiens, UniProt O95835). 8.06

Now the molecule OC1(c2ccc(-c3ccnc4[nH]cc(F)c34)cc2)CCNCC1 8.24

Now the molecule C[C@@H]1CN(C)C[C@H](C)[C@@]1(O)c1ccc(-c2ccnc3[nH]cc(F)c23)nc1 7.21

Now the molecule O=C1NCCc2cc(-c3ccnc4[nH]ccc34)ccc21 7.06

Now the molecule CC(C)N1C[C@@H](C)[C@](O)(c2c(F)cc(-c3ccnc4[nH]cc(F)c34)cc2F)[C@@H](C)C1 8.33

Now the molecule Cc1cc(-c2ccnc3[nH]cc(F)c23)cc(F)c1[C@@]1(O)[C@H](C)CNC[C@@H]1C 8.15

Now the molecule Cc1cncc(-c2c[nH]c3nccc(-c4ccc(C5(O)CCNCC5)cc4)c23)c1 7.72

Now the molecule C[C@@H]1CN(C(=O)[C@H]2CCCN2)C[C@H](C)[C@@]1(O)c1c(F)cc(-c2ccnc3[nH]cc(F)c23)cc1F 7.67

Now the molecule c1cc(-c2ccc(CN3CCCC3)cc2)c2cc[nH]c2n1 7.20

Now the molecule Fc1c[nH]c2nccc(-c3ccc(C4(C(F)(F)F)CCNCC4)cc3)c12 7.96

Continuing:
Report pIC50 for Cc1cc(-c2ccnc3[nH]cc(F)c23)cc(F)c1[C@@]1(O)[C@H](C)CN(C2CCS(=O)(=O)CC2)C[C@@H]1C tested on LATS1 (Homo sapiens, UniProt O95835). 8.36

Now the molecule Cc1cc(-c2ccc(CN)cc2)c2cc[nH]c2n1 5.05

Now the molecule CN1CCC(O)(c2ccc(-c3ccnc4[nH]cc(-c5cccnc5)c34)cc2)CC1 7.51

Now the molecule Cc1cc(-c2ccnc3[nH]cc(F)c23)ncc1[C@@]1(O)[C@H](C)CN(C)C[C@@H]1C 8.05

Now the molecule NCc1ccc(-c2cc(-c3ccnc4[nH]ccc34)ccc2C2CCNCC2)cc1 8.37

Now the molecule C[C@@H]1CNC[C@H](C)[C@@]1(O)c1ccc(-c2ccnc3[nH]cc(F)c23)cc1 7.80
